Measured solubility at 24 h accompanies every entry in the list below.
# ASSAY_REMARKS: Assessment of solubility (McIlvaine buffers, 24 h shake, UPLC-UV)
# Type: physicochemical
# RUN_PARAMETERS: pH 2.2, aqueous buffer, kinetic from dmso stock

# COMPOUND, solubility at 24 h / µg/mL
rows = [
    ("COc1c(C(=O)O)cnn1-c1cccc(-c2cccc(C)c2OCc2ccc3c(c2)CCN(C2CC(C)OC(C)C2)C3)n1 (stereo not shown) [Compound 62]", 110),
    ("CCOc1c(C(=O)O)cnn1-c1cccc(-c2cccc(C)c2OCc2ccc3c(c2C)CCN(C[C@@H]2CCCOC2)C3)n1 [Compound 152]", 97),
    ("COc1c(C(=O)O)cnn1-c1cccc(-c2cccc(C)c2OCc2ccc3c(c2)CCN([C@H]2CC[C@]4(CCCO4)CC2)C3)n1 [Compound 102]", 99),
    ("CC[C@H](C)Oc1c(C(=O)O)cnn1-c1cccc(-c2cccc(C)c2OCc2ccc3c(c2C)CCN(C2CCOC2)C3)n1 (stereo partly shown) [Compound 137]", 110),
    ("CCOc1c(C(=O)O)cnn1-c1cccc(-c2cccc(C)c2OCc2ccc3c(c2C)CCN(C(C)COC)CC3)n1 (stereo not shown) [Compound 196]", 89),
    ("CCOc1c(C(=O)O)cnn1-c1cccc(-c2cccc(C)c2OCc2ccc3c(c2)CCN(CC2CCOC(C)(C)C2)C3)n1 (stereo not shown) [Compound 80]", 110),
    ("CCOc1c(C(=O)O)cnn1-c1cccc(-c2cccc(C)c2OCc2ccc3c(c2)CCN(CC2CCOC2)C3)n1 (stereo not shown) [Compound 68]", 85),
]

###

# ASSAY_REMARKS: human liver microsome (HLM) metabolic stability assay
# Type: in vitro ADME
# RUN_PARAMETERS: human liver microsomes; % hepatic blood flow calculated from t1/2

# COMPOUND, HLM (% Qh)
rows = [
    ("CCOc1c(C(=O)O)cnn1-c1cccc(-c2cccc(C)c2OCc2ccc3c(c2C)CCN(C[C@H]2COC(C)(C)O2)C3)n1 [Compound 179]", "<24 % Qh"),
    ("COc1c(C(=O)O)cnn1-c1cccc(-c2cccc(C)c2OCc2ccc3c(c2C)CCN(C[C@@H]2CCOC2)C3)n1 [Compound 191]", "<24 % Qh"),
    ("COc1c(C(=O)O)cnn1-c1cccc(-c2cccc(C)c2OCc2cc(C)c3c(c2C)CN(S(=O)(=O)c2ccc(C)cc2)C3)n1 [Compound 138]", "68 % Qh"),
    ("COc1c(C(=O)O)cnn1-c1cccc(-c2cccc(C)c2OCc2ccc3c(c2)C(C)(C)CN(C2CCOCC2)C3)n1 [Compound 89]", "76 % Qh"),
    ("CCOc1c(C(=O)O)cnn1-c1cccc(-c2cccc(C)c2OCc2ccc3c(c2C)CCN(CC2CCOC(C)(C)C2)C3)n1 (stereo not drawn) [Compound 163]", "<24 % Qh"),
    ("COc1c(C(=O)O)cnn1-c1cccc(-c2cccc(C)c2OCc2ccc3c(c2)CCN(C2CC(C)OC(C)C2)C3)n1 (stereo not drawn) [Compound 62]", "<24 % Qh"),
]

###

# ASSAY_REMARKS: Assessment of solubility (McIlvaine buffers, 24 h shake, UPLC-UV)
# Assay type: physicochemical
# RUN_PARAMETERS: pH 6.8, aqueous buffer, kinetic from dmso stock
# Procedure: Solubility is measured by the following method. 100 uL, 10 mM DMSO stock solution of each compound is prepared in a 96 well plate format. The experiment is done in single determination at 3 pH values (2.2, 4.5 and 6.8). For each pH and one reference, 40 uL of each compound is needed. McIlvaine pH 2.2: To 2.076 g citric acid monohydrate and 0.043 g Na2HPO4×2H2O add 100 ml deionized water […] The samples are measured with UPLC-UV using the chromatographic method described below. […]
Label NOT MET if solubility at 24 h falls below 80 µg/mL; label MET in every other case.

# MOL, DISCRETE_LABEL
records = [
    ("COc1c(C(=O)O)cnn1-c1cccc(-c2cccc(C)c2OCc2ccc3c(c2)CCN(CC2CCC2)C3)n1", "NOT MET"),
    ("COc1c(C(=O)O)cnn1-c1cccc(-c2cccc(C)c2OCc2ccc3c(c2)CCN(C2CC(C)(C)OC(C)(C)C2)C3)n1", "NOT MET"),
    ("COc1c(C(=O)O)cnn1-c1cccc(-c2cccc(C)c2OCc2cc3c(cc2C)CN(C2CCOCC2)CC3)n1", "MET"),
    ("COc1c(C(=O)O)cnn1-c1cccc(-c2cccc(C)c2OCc2ccc3c(c2)CCN(CC(C)(C)O)C3)n1", "NOT MET"),
    ("COc1c(C(=O)O)cnn1-c1cccc(-c2cccc(C)c2OCc2ccc3c(c2C)CCN(CC2(C)COC2)C3)n1", "MET"),
    ("COc1c(C(=O)O)cnn1-c1cccc(-c2ccccc2OCc2ccc3c(c2)CCN(C2CCOCC2)C3)n1", "MET"),
]
